Target: T1, recombinant human activated Factor VII (FVIIa) (human, UniProt P08709 61-212; P08709 213-466, ten glutamate residues of the Gla domain may be gamma-carboxylated)
T1 construct: chains tethered by a disulfide bond; also called Factor VIIa; rFVIIa
T1 sequence 1: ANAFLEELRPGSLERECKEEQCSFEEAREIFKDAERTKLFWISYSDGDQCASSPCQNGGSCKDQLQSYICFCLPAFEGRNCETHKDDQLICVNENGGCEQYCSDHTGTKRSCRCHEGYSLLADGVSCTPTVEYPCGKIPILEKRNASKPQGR
T1 sequence 2: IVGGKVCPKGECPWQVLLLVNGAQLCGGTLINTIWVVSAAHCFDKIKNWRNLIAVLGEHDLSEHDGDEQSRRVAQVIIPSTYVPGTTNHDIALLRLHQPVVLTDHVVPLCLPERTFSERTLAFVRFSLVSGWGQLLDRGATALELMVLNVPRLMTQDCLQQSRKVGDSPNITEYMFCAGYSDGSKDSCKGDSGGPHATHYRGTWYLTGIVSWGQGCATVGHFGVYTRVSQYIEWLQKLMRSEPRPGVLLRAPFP
Experiment: BLI (Fortebio)

{"Binder": "VH SEQ ID NO 314 / VL SEQ ID NO 318 (antibody, IgG4, V domains shown, humanized 11F2; IgG4 S228P/kappa) VH: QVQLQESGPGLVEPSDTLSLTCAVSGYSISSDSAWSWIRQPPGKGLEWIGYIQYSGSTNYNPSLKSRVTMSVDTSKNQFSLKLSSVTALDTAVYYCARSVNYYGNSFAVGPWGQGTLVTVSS VL: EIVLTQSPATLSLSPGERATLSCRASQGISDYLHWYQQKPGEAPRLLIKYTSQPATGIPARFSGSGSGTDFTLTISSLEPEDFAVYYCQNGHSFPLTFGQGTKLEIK", "Kd": "17 nM"}
{"Binder": "VH SEQ ID NO 602 / VL SEQ ID NO 334 (antibody, IgG4, V domains shown, humanized 11F2; IgG4 S228P/kappa) VH: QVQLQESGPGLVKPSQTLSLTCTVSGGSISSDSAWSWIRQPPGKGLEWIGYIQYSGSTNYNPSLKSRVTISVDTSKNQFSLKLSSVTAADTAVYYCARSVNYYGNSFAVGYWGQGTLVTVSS VL: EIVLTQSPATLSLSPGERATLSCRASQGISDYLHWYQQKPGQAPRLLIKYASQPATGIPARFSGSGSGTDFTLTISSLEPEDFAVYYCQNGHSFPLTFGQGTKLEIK", "Kd": "10 nM"}
{"Binder": "VH SEQ ID NO 522 / VL SEQ ID NO 390 (antibody, IgG4, V domains shown, humanized 11F2; IgG4 S228P/kappa) VH: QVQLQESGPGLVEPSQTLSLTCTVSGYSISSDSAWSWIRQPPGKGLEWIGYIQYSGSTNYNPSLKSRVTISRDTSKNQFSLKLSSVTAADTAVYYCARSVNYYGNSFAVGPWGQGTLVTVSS VL: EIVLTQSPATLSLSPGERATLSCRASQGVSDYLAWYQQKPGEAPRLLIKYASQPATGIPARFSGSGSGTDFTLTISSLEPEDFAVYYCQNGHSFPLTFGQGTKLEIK", "Kd": "15 nM"}
